- Experimental Target: Aspartate--tRNA(Asp/Asn) ligase (Mycobacterium tuberculosis (strain ATCC 25618 / H37Rv))
- Experimental Protocol: Assay for Asp RNA synthetase-1 from Mycobacterium tuberculosis
- Format: functional
- Set-up: scale not given: in the data most compounds retested in dose-response had high values
- Stated Conditions: 30 µM
# Lookup of reported Percent Effect keyed by entry

{"Compound": "CCN(CC)Cc1cn2c(n1)CN(C(=O)c1cnccn1)CC2", "Experimental Target": "Aspartate--tRNA(Asp/Asn) ligase (Mycobacterium tuberculosis (strain ATCC 25618 / H37Rv))", "Percent Effect [%]": 0.29}
{"Compound": "Cc1[nH]c(=O)[nH]c(=O)c1CN1CCCC(CCc2ccccc2)C1 (stereo not given)", "Experimental Target": "Aspartate--tRNA(Asp/Asn) ligase (Mycobacterium tuberculosis (strain ATCC 25618 / H37Rv))", "Percent Effect [%]": -0.814}
{"Compound": "Cc1cccc(CN2CCN(Cc3ccccc3)CC(O)C2)n1 (stereo not given)", "Experimental Target": "Aspartate--tRNA(Asp/Asn) ligase (Mycobacterium tuberculosis (strain ATCC 25618 / H37Rv))", "Percent Effect [%]": 2.13}
{"Compound": "Cc1nn(CCO)c(C)c1CNC1CCC(C)(C)c2ccccc21 (stereo not given)", "Experimental Target": "Aspartate--tRNA(Asp/Asn) ligase (Mycobacterium tuberculosis (strain ATCC 25618 / H37Rv))", "Percent Effect [%]": -0.793}
{"Compound": "CCc1cc(O)nc(C2CCCN2C(=O)c2cccnc2)n1 (stereo not given)", "Experimental Target": "Aspartate--tRNA(Asp/Asn) ligase (Mycobacterium tuberculosis (strain ATCC 25618 / H37Rv))", "Percent Effect [%]": 2.54}
{"Compound": "CS(=O)(=O)Cc1cccc(C(=O)N2CCCC(n3cccn3)C2)c1 (stereo not given)", "Experimental Target": "Aspartate--tRNA(Asp/Asn) ligase (Mycobacterium tuberculosis (strain ATCC 25618 / H37Rv))", "Percent Effect [%]": -2.52}
{"Compound": "Cc1noc2ncc(C(=O)N(CC3CCOC3)C3CC3)cc12 (stereo not given)", "Experimental Target": "Aspartate--tRNA(Asp/Asn) ligase (Mycobacterium tuberculosis (strain ATCC 25618 / H37Rv))", "Percent Effect [%]": 2.12}
{"Compound": "CCS(=O)(=O)c1ccc(N2CCC(NC(=O)CCC(C)C)CC2)cc1", "Experimental Target": "Aspartate--tRNA(Asp/Asn) ligase (Mycobacterium tuberculosis (strain ATCC 25618 / H37Rv))", "Percent Effect [%]": -2.31}
{"Compound": "O=C(c1ccsc1)N1CCN2C[C@H](OCc3cccnc3)C[C@H]2C1", "Experimental Target": "Aspartate--tRNA(Asp/Asn) ligase (Mycobacterium tuberculosis (strain ATCC 25618 / H37Rv))", "Percent Effect [%]": -1.78}
{"Compound": "CN(C)CCNC(=O)c1cnc2c(c1)nc(-c1ccccc1Cl)n2C", "Experimental Target": "Aspartate--tRNA(Asp/Asn) ligase (Mycobacterium tuberculosis (strain ATCC 25618 / H37Rv))", "Percent Effect [%]": 3.74}
{"Compound": "Cn1ncc(NCc2cc(F)cc(F)c2)c(Cl)c1=O", "Experimental Target": "Aspartate--tRNA(Asp/Asn) ligase (Mycobacterium tuberculosis (strain ATCC 25618 / H37Rv))", "Percent Effect [%]": -1.31}
{"Compound": "Cc1ccccc1-c1cc(C(=O)N2CCn3c(C)nnc3C2)[nH]n1", "Experimental Target": "Aspartate--tRNA(Asp/Asn) ligase (Mycobacterium tuberculosis (strain ATCC 25618 / H37Rv))", "Percent Effect [%]": -2.28}
{"Compound": "c1cc2nc(C3CCN(CC4CC4)CC3)nn2cc1N1CCCC1", "Experimental Target": "Aspartate--tRNA(Asp/Asn) ligase (Mycobacterium tuberculosis (strain ATCC 25618 / H37Rv))", "Percent Effect [%]": -1.69}
{"Compound": "COCc1cc(O)nc(C2CCCN(Cc3cc(OC)ccc3F)C2)n1 (stereo not given)", "Experimental Target": "Aspartate--tRNA(Asp/Asn) ligase (Mycobacterium tuberculosis (strain ATCC 25618 / H37Rv))", "Percent Effect [%]": 1.71}
{"Compound": "CC(=O)Nc1nc(C(=O)NC(C)c2ccc3c(c2)OCCO3)cs1 (stereo not given)", "Experimental Target": "Aspartate--tRNA(Asp/Asn) ligase (Mycobacterium tuberculosis (strain ATCC 25618 / H37Rv))", "Percent Effect [%]": -1.73}
{"Compound": "COCCN1CCC(NCc2cccc(F)c2)C1 (stereo not given)", "Experimental Target": "Aspartate--tRNA(Asp/Asn) ligase (Mycobacterium tuberculosis (strain ATCC 25618 / H37Rv))", "Percent Effect [%]": -3.37}
{"Compound": "COC(=O)C(c1cc(F)ccc1F)N(C)C(=O)c1ccnc(C)n1 (stereo not given)", "Experimental Target": "Aspartate--tRNA(Asp/Asn) ligase (Mycobacterium tuberculosis (strain ATCC 25618 / H37Rv))", "Percent Effect [%]": -0.393}
{"Compound": "Cc1ccc(OCCC(=O)NC2CCc3nc(C)cn3C2)cc1 (stereo not given)", "Experimental Target": "Aspartate--tRNA(Asp/Asn) ligase (Mycobacterium tuberculosis (strain ATCC 25618 / H37Rv))", "Percent Effect [%]": 3.86}
{"Compound": "Clc1ccc(CN2CCCC(Cn3cncn3)C2)c2ncccc12 (stereo not given)", "Experimental Target": "Aspartate--tRNA(Asp/Asn) ligase (Mycobacterium tuberculosis (strain ATCC 25618 / H37Rv))", "Percent Effect [%]": 2.62}
{"Compound": "CCCc1nc(C)cc(N2CCC3(CCC(=O)N(CC4CC4)C3)CC2)n1", "Experimental Target": "Aspartate--tRNA(Asp/Asn) ligase (Mycobacterium tuberculosis (strain ATCC 25618 / H37Rv))", "Percent Effect [%]": 3.82}
{"Compound": "CCC1=N[C@@]2(CC[C@@H]3CN(S(=O)(=O)CC(C)C)C[C@@H]32)C(=O)N1C", "Experimental Target": "Aspartate--tRNA(Asp/Asn) ligase (Mycobacterium tuberculosis (strain ATCC 25618 / H37Rv))", "Percent Effect [%]": 0.189}
{"Compound": "CCn1c(C(=O)N2CCN(C(=O)COC)CC2)cc2ccccc21", "Experimental Target": "Aspartate--tRNA(Asp/Asn) ligase (Mycobacterium tuberculosis (strain ATCC 25618 / H37Rv))", "Percent Effect [%]": -7.07}
{"Compound": "CC(C)(O)CN1CCN(C(=O)c2cc(Cl)cc3cccnc23)CC1", "Experimental Target": "Aspartate--tRNA(Asp/Asn) ligase (Mycobacterium tuberculosis (strain ATCC 25618 / H37Rv))", "Percent Effect [%]": -3.59}
{"Compound": "CCOC(=O)CCC(=O)NC(C)c1ccc(NC(=O)CC)cc1 (stereo not given)", "Experimental Target": "Aspartate--tRNA(Asp/Asn) ligase (Mycobacterium tuberculosis (strain ATCC 25618 / H37Rv))", "Percent Effect [%]": -8.03}
{"Compound": "COc1ccc(CN2CCc3nc(C4CCCCN4C)ncc3C2)cc1 (stereo not given)", "Experimental Target": "Aspartate--tRNA(Asp/Asn) ligase (Mycobacterium tuberculosis (strain ATCC 25618 / H37Rv))", "Percent Effect [%]": 3.22}
{"Compound": "CN(C)C(=O)Cc1nc(CN2CCOC(Cn3cccn3)C2)cs1 (stereo not given)", "Experimental Target": "Aspartate--tRNA(Asp/Asn) ligase (Mycobacterium tuberculosis (strain ATCC 25618 / H37Rv))", "Percent Effect [%]": -3.5}
{"Compound": "COCCN1CC(C(=O)NCc2ccnc(-n3cccn3)c2)CC1=O (stereo not given)", "Experimental Target": "Aspartate--tRNA(Asp/Asn) ligase (Mycobacterium tuberculosis (strain ATCC 25618 / H37Rv))", "Percent Effect [%]": -0.544}
{"Compound": "COCCC(=O)N1CCc2cc(Cl)cc(Cl)c2C1", "Experimental Target": "Aspartate--tRNA(Asp/Asn) ligase (Mycobacterium tuberculosis (strain ATCC 25618 / H37Rv))", "Percent Effect [%]": 1.46}
{"Compound": "CCn1ccnc1CN1CCCN(C(=O)Cn2nc(C)cc2C)CC1", "Experimental Target": "Aspartate--tRNA(Asp/Asn) ligase (Mycobacterium tuberculosis (strain ATCC 25618 / H37Rv))", "Percent Effect [%]": 3.14}
{"Compound": "O=C(NCCC(=O)N1CCCC1)c1nn(-c2ccccc2F)cc1O", "Experimental Target": "Aspartate--tRNA(Asp/Asn) ligase (Mycobacterium tuberculosis (strain ATCC 25618 / H37Rv))", "Percent Effect [%]": -3.29}
{"Compound": "N#CC1CCCN(c2nc(-c3ccccc3)nc3c2CCNCC3)C1 (stereo not given)", "Experimental Target": "Aspartate--tRNA(Asp/Asn) ligase (Mycobacterium tuberculosis (strain ATCC 25618 / H37Rv))", "Percent Effect [%]": 0.524}
{"Compound": "Cc1nc([C@@H]2C[C@@H]3CCN(C(=O)c4occc4C)C[C@H]3O2)no1", "Experimental Target": "Aspartate--tRNA(Asp/Asn) ligase (Mycobacterium tuberculosis (strain ATCC 25618 / H37Rv))", "Percent Effect [%]": 10.9}
{"Compound": "c1csc(-c2nc(CN3CCCC3Cn3cncn3)co2)c1 (stereo not given)", "Experimental Target": "Aspartate--tRNA(Asp/Asn) ligase (Mycobacterium tuberculosis (strain ATCC 25618 / H37Rv))", "Percent Effect [%]": 3.68}
{"Compound": "Cc1ccc(C(=O)N2CCCC(NC(=O)C(C)C)C2)c(O)c1 (stereo not given)", "Experimental Target": "Aspartate--tRNA(Asp/Asn) ligase (Mycobacterium tuberculosis (strain ATCC 25618 / H37Rv))", "Percent Effect [%]": 7}
{"Compound": "Cc1cc(NC(=O)NCc2ccccc2OC(F)F)n(C)n1", "Experimental Target": "Aspartate--tRNA(Asp/Asn) ligase (Mycobacterium tuberculosis (strain ATCC 25618 / H37Rv))", "Percent Effect [%]": -5.2}
{"Compound": "O=C(CSC1CCc2ccccc2NC1=O)NCCO (stereo not given)", "Experimental Target": "Aspartate--tRNA(Asp/Asn) ligase (Mycobacterium tuberculosis (strain ATCC 25618 / H37Rv))", "Percent Effect [%]": 0.805}
{"Compound": "CN(C)CC(=O)N1CCOC2(CCCN(c3ncccc3F)C2)C1 (stereo not given)", "Experimental Target": "Aspartate--tRNA(Asp/Asn) ligase (Mycobacterium tuberculosis (strain ATCC 25618 / H37Rv))", "Percent Effect [%]": 1.93}
{"Compound": "Cc1ccc(NC2CCN(C(=O)c3cccc4ncccc34)CC2)nn1", "Experimental Target": "Aspartate--tRNA(Asp/Asn) ligase (Mycobacterium tuberculosis (strain ATCC 25618 / H37Rv))", "Percent Effect [%]": 3.98}
{"Compound": "CC(Cn1cccn1)NC(=O)Nc1ccc(F)cc1 (stereo not given)", "Experimental Target": "Aspartate--tRNA(Asp/Asn) ligase (Mycobacterium tuberculosis (strain ATCC 25618 / H37Rv))", "Percent Effect [%]": 1.84}
{"Compound": "COc1ccc(CNC(=O)NCc2c(C)cc(C)[nH]c2=O)cc1", "Experimental Target": "Aspartate--tRNA(Asp/Asn) ligase (Mycobacterium tuberculosis (strain ATCC 25618 / H37Rv))", "Percent Effect [%]": 4.97}
